- Tested on: RAW264.7
- assay.remarks: Cytotoxicity against mouse RAW264.7 cells after 24 hrs by MTT assay
- Type: cell-based
- protocol.conditions: raw264.7, 24 h
test.readout: Activity

C/C=C/c1ccc(O[C@@H]2O[C@H](CO[C@@H]3O[C@@H](C)[C@@H]4OC(=O)c5cc(O)c(O)c(O)c5-c5c(cc(O)c(O)c5O)C(=O)O[C@H]4[C@H]3O)[C@H]3OC(=O)c4cc(O)c(O)c(O)c4-c4c(cc(O)c(O)c4O)C(=O)O[C@@H]3[C@H]2O)cc1	Non-Toxic
O=c1oc2c(O)c(O)cc3c(=O)oc4c(O)c(O)cc1c4c23	Non-Toxic
C/C=C/c1ccc(O[C@@H]2O[C@H](CO)[C@H]3OC(=O)c4cc(O)c(O)c(O)c4-c4c(cc(O)c(O)c4O)C(=O)O[C@@H]3[C@H]2O)cc1	Non-Toxic

---

Measured log10 IC50 values are reported for all entries that follow.
- System: RAW264.7
- assay.remarks: Anti-inflammatory activity in mouse RAW264.7 cells assessed as inhibition of LPS-induced nitric oxide production preincubated for 2 hrs followed by LPS stimulation and measured after 24 hrs by Griess assay
- Assay type: functional, cell-based
# values: log10(IC50), units µM

// worked examples, log10 IC50 included
C=CCc1ccc(O[C@@H]2O[C@H](CO)[C@H]3OC(=O)c4cc(O)c(O)c(O)c4-c4c(cc(O)c(O)c4O)C(=O)O[C@@H]3[C@H]2O)c(O)c1	0.61
C/C=C/c1ccc(O[C@@H]2O[C@H](CO)[C@H]3OC(=O)c4cc(O)c(O)c(O)c4-c4c(cc(O)c(O)c4O)C(=O)O[C@@H]3[C@H]2O)c(O)c1	0.32
C=CCc1ccc(O[C@@H]2O[C@H](COC(=O)c3cc(O)c(O)c(O)c3)[C@H]3OC(=O)c4cc(O)c(O)c(O)c4-c4c(cc(O)c(O)c4O)C(=O)O[C@@H]3[C@H]2O)c(O)c1	0.59

The molecule listed as C/C=C/c1ccc(O[C@@H]2O[C@H](CO)[C@@H](O)[C@H](O)[C@H]2O)c(O)c1 shows log10 IC50 equal to 1.47

Memo: C/C=C/c1ccc(O[C@@H]2O[C@H](CO)[C@H]3OC(=O)c4cc(O)c(O)c(O)c4-c4c(cc(O)c(O)c4O)C(=O)O[C@@H]3[C@H]2O)cc1 , reported log10 IC50: 0.91

Sample O=c1cc(-c2ccc(O)c(O)c2)oc2cc(O)cc(O)c12 [LUTEOLIN] ; log10 IC50 observed: 0.76

The recorded log10 IC50 for C/C=C/c1ccc(O[C@@H]2O[C@H](CO[C@@H]3O[C@@H](C)[C@@H]4OC(=O)c5cc(O)c(O)c(O)c5-c5c(cc(O)c(O)c5O)C(=O)O[C@H]4[C@H]3O)[C@H]3OC(=O)c4cc(O)c(O)c(O)c4-c4c(cc(O)c(O)c4O)C(=O)O[C@@H]3[C@H]2O)cc1 is 0.56

// field: log10 IC50; key: C=CCc1ccc(O[C@@H]2O[C@H](CO)[C@H]3OC(=O)c4cc(O)c(O)c(O)c4-c4c(cc(O)c(O)c4O)C(=O)O[C@@H]3[C@H]2O)cc1 ; value = 0.63

Recorded result, C=CCc1ccc(O[C@@H]2O[C@H](CO[C@@H]3O[C@@H](C)[C@@H]4OC(=O)c5cc(O)c(O)c(O)c5-c5c(cc(O)c(O)c5O)C(=O)O[C@H]4[C@H]3O)[C@H]3OC(=O)c4cc(O)c(O)c(O)c4-c4c(cc(O)c(O)c4O)C(=O)O[C@@H]3[C@H]2O)cc1 , log10 IC50: 0.28
